// cross-study collection: pKi for Prostacyclin receptor (Homo sapiens)
Reminder that pKi means the negative base-10 logarithm of the concentration expressed in mol/L.

Sure, the documented pKi for `O=C(O)COc1cccc2c(CCCSCCC(c3ccccc3)c3ccccc3)coc12` is 5.54

Sure, the documented pKi for `Cc1c(CC(=O)O)c2ccccc2n1C(=O)c1ccc(OC[C@@H]2CN(C)c3ccccc3O2)cc1F` is 6.96

Sure, the documented pKi for `Cc1cc(C(=O)n2c(C)c(CC(=O)O)c3cc(F)ccc32)ccc1OC[C@@H]1CN(C)c2ccccc2O1` is 6.80

Sure, the documented pKi for `O=C(O)COc1cccc2c(CCCSCC(c3ccccc3)c3ccccc3)coc12` is 6.40

Sure, the documented pKi for `CN1C[C@@H](COc2ccc(C(=O)Nc3cccc(CC(=O)O)c3)cc2)Oc2ccccc21` is 5.19

Sure, the documented pKi for `Cc1c(OC[C@@H]2CN(C)c3ccccc3O2)ccc(C(=O)Nc2cc(CC(=O)O)ccc2Cl)c1C` is 5.46

Sure, the documented pKi for `O=C(O)COc1cccc2c1CC[C@](O)(COC(=O)N(c1ccccc1)c1ccccc1)C2` is 8.05

Sure, the documented pKi for `Cc1ccc(N(CCN2CCC(OCC(=O)O)CC2)C(=O)c2ccc3c(c2)OCO3)cc1.Cl.O` is 6.40

Sure, the documented pKi for `Cc1cc(C(=O)n2c(C)c(CC(=O)O)c3ccccc32)c(C)cc1OC[C@@H]1CN(C)c2ccccc2O1` is 7.03

Sure, the documented pKi for CCN1c2ccccc2CC1COc1ccc(C(=O)n2c(C)c(CC(=O)O)c3ccccc32)c(C)c1 (stereo not given) is 5.29

Sure, the documented pKi for `Cc1cc(C(=O)n2c(C)c(CC(=O)O)c3cc(F)ccc32)c(C)cc1OC[C@@H]1CN(C)c2ccccc2O1` is 7.03

Sure, the documented pKi for `O=C(O)COc1cccc2c1CC[C@H](Cn1nc(C(c3ccccc3)c3ccccc3)ccc1=O)C2` is 7.03

Sure, the documented pKi for `COc1ccc2c(c1)c(CC(=O)O)c(C)n2C(=O)c1ccc(OC[C@@H]2CN(C)c3ccccc3O2)cc1` is 6.00

Sure, the documented pKi for `CCN(C(=O)c1ccc(OC[C@@H]2CN(C)c3ccccc3O2)cc1)c1cccc(CC(=O)O)c1` is 5.54

Sure, the documented pKi for `Cc1c(CC(=O)O)c2cc(Cl)ccc2n1C(=O)c1ccc(OC[C@@H]2CN(C)c3ccccc3O2)cc1` is 7.31

Sure, the documented pKi for `Cc1c(CC(=O)O)c2cc(F)ccc2n1C(=O)c1ccc(OC[C@@H]2CN(C)c3ccccc3O2)cc1F` is 6.49

Sure, the documented pKi for `CCCCC[C@H](O)/C=C/[C@H]1[C@H](O)CC(=O)[C@@H]1CCSCCCC(=O)O` is 6.12

Sure, the documented pKi for `Cc1ccc(N(CCN2CCC(OCC(=O)O)CC2)C(=O)c2ccccc2)cc1` is 6.00

----------
// cross-study collection: log10(Ki) for Prostacyclin receptor (Homo sapiens)
Short version: log10 scale, Ki, nM.

Record `Cc1c(CC(=O)O)c2cc(F)ccc2n1C(=O)c1ccc(OC[C@@H]2CN(C)c3ccccc3O2)cc1` has Prostacyclin receptor (Homo sapiens) log10(Ki) equal to 2.51

Record `CC(SCCc1c(CCO)oc2c(OCC(=O)O)cccc12)(c1ccccc1)c1ccccc1` has Prostacyclin receptor (Homo sapiens) log10(Ki) equal to 2.32

Record `COc1cccc(OC)c1C1(C(=O)NS(=O)(=O)Cc2ccc(N3Cc4c(c(OCC(F)(F)F)c5cccnc5c4OCC(F)(F)F)C3=O)c(C)c2)CC1` has Prostacyclin receptor (Homo sapiens) log10(Ki) equal to 3.30

Record `O=C([O-])COc1cccc(C[C@@H]2CCC[C@@H]3O[C@]23c2nc(-c3ccccc3)c(-c3ccccc3)o2)c1.[Na+]` has Prostacyclin receptor (Homo sapiens) log10(Ki) equal to 0.79

Record CC#CCC(C)[C@H](O)/C=C/[C@H]1[C@H](O)CC2Oc3c(CCCC(=O)[O-])cccc3[C@@H]21.[Na+] (stereo partly drawn) has Prostacyclin receptor (Homo sapiens) log10(Ki) equal to 1.90

Record `Cc1cc(OC[C@@H]2Cc3ccccc3O2)ccc1C(=O)n1c(C)c(CC(=O)O)c2ccccc21` has Prostacyclin receptor (Homo sapiens) log10(Ki) equal to 2.45

Record `Cc1cc2c(CC(=O)O)cccc2n1C(=O)c1ccc(OC[C@@H]2CN(C)c3ccccc3O2)cc1` has Prostacyclin receptor (Homo sapiens) log10(Ki) equal to 1.57

Record `O=C(O)COc1cccc2c(CSCC(c3ccccc3)c3ccccc3)coc12` has Prostacyclin receptor (Homo sapiens) log10(Ki) equal to 2.83

Record `Cc1cc(OC[C@@H]2COc3ccccc32)ccc1C(=O)n1c(C)c(CC(=O)O)c2ccccc21` has Prostacyclin receptor (Homo sapiens) log10(Ki) equal to 3.32

----------
// cross-study collection: Ki for Prostacyclin receptor (Homo sapiens)

Sure, the documented Ki for `Cc1sc(C)c(C(=O)N[C@@H](C)c2ccc(C(=O)O)cc2)c1Cc1cccc(C(F)(F)F)c1` is > 3.46 µM

Sure, the documented Ki for `Cc1ccc2c(c1)[C@H](COc1cc(C)c(C(=O)Nc3cc(CC(=O)O)ccc3Cl)c(C)c1)CO2` is > 10 µM

Sure, the documented Ki for `CN1C[C@@H](COc2ccc(C(=O)N(C)c3cccc(CC(=O)O)c3)cc2)Oc2ccccc21` is > 10 µM

Sure, the documented Ki for `O=C(NS(=O)(=O)Cc1ccccc1)c1cccc(C[C@@H]2CCCC=C2c2nc(-c3ccccc3)c(-c3ccccc3)o2)c1` is > 3 µM

----------
pKi: −log10 of the molar value.
// cross-study collection: pKi for Prostacyclin receptor (Homo sapiens)

Sure, the documented pKi for `C[C@H](NC(=O)c1cc(F)cc2ccn(Cc3cccc(Cl)c3)c12)c1ccc(C(=O)O)cc1` is ≤ 6.30

Sure, the documented pKi for `O=C(O)CCCCCNC(=O)[C@H](CCCNC(=O)OCc1ccccc1)NC(=O)c1cc2ccccc2o1` is < 5.00

Sure, the documented pKi for `Cc1cc(C(=O)Nc2cc(C(C)(C)C(=O)O)ccc2Cl)c(C)cc1OC[C@@H]1CN(C)c2ccccc2O1` is 5.48

Sure, the documented pKi for `CC(c1ccccc1)(c1ccccc1)S(=O)(=O)CCc1c(CO)oc2c(OCC(=O)O)cccc12` is 5.72

Sure, the documented pKi for `CCCCC[C@H](O)/C=C/[C@H]1[C@H](O)CC(=O)[C@@H]1CSCCCCC(=O)O` is 5.85

Sure, the documented pKi for `O=C(O)/C=C/c1ccccc1Cc1ccc2cc(OCc3ccccc3)ccc2c1` is < 6.30

Sure, the documented pKi for `O=C(O)COc1cccc2c1CCC[C@H]2N1CCC[C@@H]1c1nc(-c2ccccc2)c(-c2ccccc2)o1` is 7.92

Sure, the documented pKi for CC(c1ccccc1)(c1ccccc1)[S+]([O-])CCc1c(CO)oc2c(OCC(=O)O)cccc12 (stereo not drawn) is < 5.00

Sure, the documented pKi for `CCOc1c2c(c(OCC)c3ncccc13)CN(c1ccc(CS(=O)(=O)NC(=O)Cc3ccccc3OC)cc1C)C2=O` is < 5.15

Sure, the documented pKi for `Cc1cc(OC[C@@H]2CN(C)c3ccccc3O2)cc(C)c1C(=O)Nc1cc(C(C)(C)C(=O)O)ccc1Cl` is < 5.00

Sure, the documented pKi for `Cc1cc(C(=O)n2c(C)c(CC(=O)O)c3ccccc32)ccc1OC[C@@H]1CN(C)c2ccccc2O1` is 7.14

Sure, the documented pKi for `CCc1nc2c(C)nc(C)cc2n1-c1ccc(CCNC(=O)NS(=O)(=O)c2ccc(C)cc2)cc1` is < 5.30

Sure, the documented pKi for `Cc1cc(OC[C@@H]2CN(C)c3ccccc3O2)ccc1C(=O)n1c(C)c(CC(=O)O)c2cc(F)ccc21` is 6.89

Sure, the documented pKi for `Cc1cc(OCC2Oc3ccccc3O2)ccc1C(=O)n1c(C)c(CC(=O)O)c2ccccc21` is 5.52

Sure, the documented pKi for `C[C@@H](NC(=O)c1c(Cl)sc(Cl)c1Cc1cccc(Cl)c1)c1ccc(C(=O)O)cc1` is < 6.65

Sure, the documented pKi for `Cc1cc(C(=O)Nc2cccc(CC(=O)O)c2)c(C)cc1OC[C@@H]1CN(C)c2ccccc2O1` is < 5.00

Sure, the documented pKi for `COCc1cccc(C[C@H](O)/C=C/[C@H]2[C@H](O)CC(=O)[C@@H]2CCSCCCC(=O)O)c1` is < 5.00

Sure, the documented pKi for `O=C(/C=C/c1ccccc1Cc1ccc2ccccc2c1)NS(=O)(=O)c1cccs1` is < 6.30

----------
// cross-study collection: pKi for Prostacyclin receptor (Homo sapiens, UniProt P43119)
pKi: −log10 of the molar value.

Sure, the documented pKi for `C[C@H](NC(=O)c1cc(Cl)cc2ccn(Cc3ccc(C(F)(F)F)cc3)c12)c1ccc(C(=O)O)cc1` is ≤ 7.00

Sure, the documented pKi for `Cc1sc(C)c(C(=O)N[C@@H](C)c2ccc(C(=O)O)cc2)c1Cc1ccc(Cl)cc1` is < 5.67

Sure, the documented pKi for `C[C@H](NC(=O)c1cc(Cl)cnc1Oc1cccc(F)c1)c1ccc(C(=O)O)cc1` is < 5.22

Sure, the documented pKi for `C[C@H](NC(=O)c1c(Cl)sc(Cl)c1Cc1cccc(Cl)c1)c1ccc(C(=O)O)cc1` is < 6.34

Sure, the documented pKi for `C[C@H](NC(=O)c1cccc2ccn(Cc3cc(Cl)cc(OC(F)(F)F)c3)c12)c1ccc(C(=O)O)cc1` is ≤ 6.59

Sure, the documented pKi for `Cc1cc(OC[C@@H]2COc3ccccc3O2)cc(C)c1C(=O)Nc1cc(CC(=O)O)ccc1Cl` is < 5.00

Sure, the documented pKi for `C[C@H](NC(=O)c1cc(Cl)cc2ccn(Cc3cccc(Cl)c3)c12)c1ccc(C(=O)O)cc1` is ≤ 6.96

Sure, the documented pKi for `COCc1cccc(C[C@H](O)/C=C/[C@@H]2[C@@H](C/C=C/CCCC(=O)O)[C@H](F)C[C@H]2O)c1` is < 5.00

Sure, the documented pKi for `O=C(O)c1ccc(C2(NC(=O)c3cccc4ccn(Cc5ccc(C(F)(F)F)cc5)c34)CC2)cc1` is < 4.66

Sure, the documented pKi for `O=C(O)c1ccc(C2(NC(=O)c3cc(Cl)cc4ccn(Cc5ccc(C(F)(F)F)cc5)c34)CC2)cc1` is ≤ 5.89

Sure, the documented pKi for `O=C(O)/C=C/c1ccccc1Cc1ccc2ccccc2c1` is < 6.30

Sure, the documented pKi for `C[C@H](NC(=O)c1cccc2ccn(Cc3cccc(Cl)c3)c12)c1ccc(C(=O)O)cc1` is ≤ 5.60

Sure, the documented pKi for `O=C(NCCC[C@H](NC(=O)c1cc2ccccc2[nH]1)C(=O)N[C@@H](Cc1ccccc1)C(=O)O)OCc1ccccc1` is < 6.00

Sure, the documented pKi for `COCc1cccc(C[C@H](O)/C=C/[C@@H]2[C@@H](CCCCCCC(=O)O)[C@H](Cl)C[C@H]2O)c1` is < 5.00

Sure, the documented pKi for `Cc1cc(OC[C@@H]2Cc3ccccc3O2)cc(C)c1C(=O)Nc1cc(CC(=O)O)ccc1Cl` is < 5.00

Sure, the documented pKi for `Cc1cc(OC[C@@H]2CN(C)c3ccccc3O2)cc(C)c1C(=O)Nc1cccc(CC(=O)O)c1` is < 5.00

Sure, the documented pKi for `Cc1ccc(OCc2c(Cl)cccc2Cl)c(/C=C/Cc2ccccc2/C=C/C(=O)O)c1` is < 6.30
